Exercise: for every item that follows, state its recorded Decomposition Temperature.
experiment: decomposition temperature of ionic liquids; type: physicochemical; conditions: 1-alkyl-pyridinium ionic liquids, Table 3, citation not given

>>> experimental_value("CCCCCC[n+]1ccc(C)cc1.[Cl-] [[1-hexyl-4-methylpyridinium] Cl]")
"218 °C"
>>> experimental_value("F[P-](F)(F)(F)(F)F.c1ccc(CCCc2cc[nH+]cc2)cc1 [[4-phenylpropyl-pyridinium] [PF6]]")
"163-474 °C"

In the following, a different molecule is considered.
Query :: Suppose we examine the molecule CCCCc1ccc[nH+]c1.F[P-](F)(F)(F)(F)F [[3-n-butyl-pyridinium] [PF6]] ; what Decomposition Temperature value has been reported?
Result :: 125-444 °C

* * *

assay: decomposition temperature of ionic liquids; type: physicochemical; settings: 1-alkyl-pyridinium ionic liquids, Table 3, citation not given
Reported Property: Decomposition Temperature (°C)
Numbers only, in °C.

Known results for molecules:
>>> experimental_value("CCCC[n+]1ccc(C)cc1.[Cl-] [[1-butyl-4-methylpyridinium] Cl]")
214
>>> experimental_value("CCCC[n+]1cccc(C)c1.F[P-](F)(F)(F)(F)F [[1-butyl-3-methylpyridinium] [PF6]]")
347
>>> experimental_value("CCCC[n+]1ccc(C)cc1.F[B-](F)(F)F [[1-butyl-4-methylpyridinium] [BF4]]")
332

In the following, a different molecule is considered.
Query :: Suppose we examine the molecule CCCC[n+]1ccc(C)cc1.F[P-](F)(F)(F)(F)F [[1-butyl-4-methylpyridinium] [PF6]] ; what Decomposition Temperature value has been reported?
Result :: 358

The measurements presented in this section are drawn from patent US6749336B2.
